Measured pIC50 accompanies every entry in the list below.
- SYSTEM: recombinant human SAE enzyme (Homo sapiens (Human))
- Sequence (Q9UBT2 whole entry): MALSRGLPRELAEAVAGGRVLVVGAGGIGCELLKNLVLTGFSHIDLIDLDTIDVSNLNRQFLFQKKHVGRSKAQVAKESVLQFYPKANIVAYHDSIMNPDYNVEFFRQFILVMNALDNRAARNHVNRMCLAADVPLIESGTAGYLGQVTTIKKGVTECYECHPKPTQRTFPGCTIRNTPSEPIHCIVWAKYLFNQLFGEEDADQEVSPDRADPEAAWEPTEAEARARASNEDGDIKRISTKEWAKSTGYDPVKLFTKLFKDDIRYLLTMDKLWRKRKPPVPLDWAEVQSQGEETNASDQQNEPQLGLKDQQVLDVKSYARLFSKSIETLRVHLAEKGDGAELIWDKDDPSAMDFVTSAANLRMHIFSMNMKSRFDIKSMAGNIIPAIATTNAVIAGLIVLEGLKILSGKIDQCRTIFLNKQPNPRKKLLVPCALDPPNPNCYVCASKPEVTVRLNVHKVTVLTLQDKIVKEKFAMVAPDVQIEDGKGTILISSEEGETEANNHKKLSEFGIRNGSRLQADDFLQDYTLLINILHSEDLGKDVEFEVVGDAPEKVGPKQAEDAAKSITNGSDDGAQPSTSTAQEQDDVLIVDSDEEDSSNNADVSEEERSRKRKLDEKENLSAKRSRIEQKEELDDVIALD
- Sequence (Q9UBE0 whole entry partner): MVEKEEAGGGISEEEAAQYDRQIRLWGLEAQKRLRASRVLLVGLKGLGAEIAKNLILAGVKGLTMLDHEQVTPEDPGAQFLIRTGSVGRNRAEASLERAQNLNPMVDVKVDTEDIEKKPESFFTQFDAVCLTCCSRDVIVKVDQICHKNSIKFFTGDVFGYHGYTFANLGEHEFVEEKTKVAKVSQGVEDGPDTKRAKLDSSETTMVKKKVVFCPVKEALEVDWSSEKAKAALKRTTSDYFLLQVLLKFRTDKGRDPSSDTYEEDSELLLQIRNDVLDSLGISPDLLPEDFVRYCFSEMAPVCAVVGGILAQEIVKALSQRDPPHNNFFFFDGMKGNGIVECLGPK
- METHOD: SAE HTRF enzyme assay
- Type: biochemical
- CONDITION_NOTES: class symbols A/B/C
pIC50: −log10 of the molar value.
QUANTITY: pIC50

INSERT INTO results (compound, quantity, result) VALUES
  ('NS(=O)(=O)OC[C@H]1C[C@@H](Nc2ncncc2C(=O)c2cc(C3NCCc4ccc(Cl)cc43)c(Cl)s2)C[C@@H]1O (single isomer, unassigned) [I-255b]', 'pIC50', '> 8.00'),
  ('N[C@H](c1cccc(Br)c1)c1cc(C(=O)c2cncnc2N[C@@H]2C[C@H](COS(N)(=O)=O)[C@@H](O)C2)sc1Cl (single isomer, unassigned) [I-22b]', 'pIC50', '> 8.00'),
  ('NS(=O)(=O)OC[C@H]1C[C@@H](Nc2ncncc2C(=O)c2cc([C@@H](O)c3cccc(Br)c3)c(Cl)s2)C[C@@H]1O (single isomer, unassigned) [I-16a]', 'pIC50', '> 8.00'),
  ('Cc1sc(C(=O)c2cncnc2N[C@@H]2C[C@H](COS(N)(=O)=O)[C@@H](O)C2)cc1[C@H]1OCCc2ccc(Cl)cc21 [I-257a]', 'pIC50', '7.00 to 8.00'),
  ('NS(=O)(=O)OC[C@H]1C[C@@H](Nc2ncncc2C(=O)c2cc(C3OCCc4ccc(Cl)cc43)cs2)C[C@@H]1O (single isomer, unassigned) [I-261a]', 'pIC50', '7.00 to 8.00'),
  ('NS(=O)(=O)OC[C@H]1C[C@@H](Nc2ncncc2C(=O)c2cc([C@@H]3NCCc4ccc(Cl)cc43)c(Cl)s2)[C@H](O)[C@@H]1O (single isomer, unassigned) [I-249a]', 'pIC50', '> 8.00'),
  ('CC(c1cccc(Cl)c1)c1csc(C(=O)c2cncnc2N[C@@H]2C[C@H](COS(N)(=O)=O)[C@@H](O)C2)c1 (single isomer, unassigned) [I-117b]', 'pIC50', '> 8.00'),
  ('Cc1sc(C(=O)c2cncnc2N[C@@H]2C[C@H](COS(N)(=O)=O)[C@@H](O)C2)cc1[C@H]1OCC(F)(F)c2ccc(Cl)nc21 (single isomer, unassigned) [I-260a]', 'pIC50', '> 8.00'),
  ('C[C@](N)(c1cccc(Cl)c1)c1csc(C(=O)c2cncnc2N[C@@H]2C[C@H](COS(N)(=O)=O)[C@@H](O)C2)c1 (single isomer, unassigned) [I-12a]', 'pIC50', '7.00 to 8.00'),
  ('CC(O)(c1cccc(Cl)c1)c1cc(C(=O)c2cncnc2N[C@@H]2C[C@H](COS(N)(=O)=O)[C@@H](O)C2)sc1Cl (single isomer, unassigned) [I-102a]', 'pIC50', '6.00 to 7.00'),
  ('C=C(c1cccc(Cl)c1)c1cc(C(=O)c2cncnc2N[C@@H]2C[C@H](COS(N)(=O)=O)[C@@H](O)C2)sc1C [I-100]', 'pIC50', '> 8.00'),
  ('NS(=O)(=O)OC[C@H]1C[C@@H](Nc2ncncc2C(=O)c2cc(C3NCCc4ccc(Cl)cc43)cs2)C[C@@H]1O (single isomer, unassigned) [I-274b]', 'pIC50', '7.00 to 8.00'),
  ('NS(=O)(=O)OC[C@H]1C[C@@H](Nc2ncncc2C(=O)c2cc(Cc3cccc(Cl)c3)c(CC3CCOCC3)s2)C[C@@H]1O [I-110]', 'pIC50', '> 8.00'),
  ('C#Cc1ccc2c(c1)[C@H](c1cc(C(=O)c3cncnc3N[C@@H]3C[C@H](COS(N)(=O)=O)[C@@H](O)C3)sc1C)OCC2 (single isomer, unassigned) [I-252b]', 'pIC50', '> 8.00'),
  ('Cc1oc(C(=O)c2cncnc2N[C@@H]2C[C@H](COS(N)(=O)=O)[C@@H](O)C2)cc1Cc1cccc(Br)c1 [I-34]', 'pIC50', '> 8.00'),
  ('Cc1sc(C(=O)c2cncnc2N[C@@H]2C[C@H](COS(N)(=O)=O)[C@@H](O)C2)cc1Sc1cccc(C(F)(F)F)c1 [I-145]', 'pIC50', '> 8.00'),
  ('N#Cc1ccccc1OCc1csc(C(=O)c2cncnc2N[C@@H]2C[C@H](COS(N)(=O)=O)[C@@H](O)C2)c1 [I-124]', 'pIC50', '> 8.00'),
  ('C=C(C)[C@@H](O)c1coc(C(=O)c2cncnc2N[C@@H]2C[C@H](COS(N)(=O)=O)[C@@H](O)C2)c1.C=C(C)[C@H](O)c1coc(C(=O)c2cncnc2N[C@@H]2C[C@H](COS(N)(=O)=O)[C@@H](O)C2)c1 (mixture of isomers) [I-197]', 'pIC50', '7.00 to 8.00'),
  ('NS(=O)(=O)OC[C@H]1C[C@@H](Nc2ncncc2C(=O)c2cc(CC3=CCOC3)cs2)C[C@@H]1O [I-193]', 'pIC50', '7.00 to 8.00'),
  ('CC(C)[C@@H](O)c1cc(C(=O)c2cncnc2N[C@@H]2C[C@H](COS(N)(=O)=O)[C@@H](O)C2)sc1Cl (mixture of isomers) [I-195]', 'pIC50', '7.00 to 8.00'),
  ('C=C(c1cccc(Br)c1)c1csc(C(=O)c2cncnc2N[C@@H]2C[C@H](COS(N)(=O)=O)[C@@H](O)C2)c1 [I-164]', 'pIC50', '7.00 to 8.00'),
  ('NS(=O)(=O)OC[C@H]1C[C@@H](Nc2ncncc2C(=O)c2cc(CC3=CCSCC3)cs2)C[C@@H]1O [I-173]', 'pIC50', '7.00 to 8.00'),
  ('NS(=O)(=O)OCC1CC(Nc2ncncc2C(=O)c2cc(C3(c4cccc(Cl)c4)CCCCO3)cs2)CC1O (mixture of isomers) [I-154]', 'pIC50', '> 8.00');

Data origin, for the record: patent US10780090B2
